The entries below are paired with their reported HI titers.
target of assay: HA of influenza B virus B/Brisbane/60/2008 (live virus) (influenza B virus B/Brisbane/60/2008)
assay overview: cell-based or functional assay
property name: HI titers

CR11038 (antibody, V domains shown) VH: EVQLVESGAEVKKPGASVKVSCKASGYAFTSYYLHWVRQAPGQGLEWMGIMNPHGGSTTYAQKFQGRVTMTRDTSTSTVYMELSSLRSEDTAVYYCARESPDSSGYPGYYGMDVWGQGTTVTVSS VL: SYELTQPPSASGTPGQRVTMSCSGSRSNIGSNPVSWFQQLPGMVPKLLIYTNDQRPSGVPDRFSGSKSGPSASLAISGLQSEDEADYYCAAWDDSLKGWVFGGGTKLTVL    0.31 µg/mL
CR11036 (antibody, V domains shown) VH: EVQLVQSGAEVKKPGASVTVSCKASGYAFTSYYLHWVRQAPGQGLEWMGIMNLHGGSTTYAQKFQGRVTMTRDTSTRTVYMELSGLRSEDSAVYYCARESPDSSGYPGYYGMDVWGQGTTVTVSS VL: EIVLTQSPGTLSLSPGERATLSCRASQSVSSDFFAWYQQKRGQTPTLLIYGTSTRATGIPDRFSGSGSGTDFTLSVARLEPEDFAVYYCQQYGSSTWTFGQGTKVEIK    > 10 µg/mL
CR8071 (antibody, V domains shown) VH: QVQLVQSGAEVKKPGASVRVSCRASGYIFTESGITWVRQAPGQGLEWMGWISGYSGDTKYAQKLQGRVTMTKDTSTTTAYMELRSLRYDDTAVYYCARDVQYSGSYLGAYYFDYWSPGTLVTVSS VL: QSVLTQPPSASGTPGQRVTISCSGSSSNIGTNYVYWYQQFPGTAPKLLIYRSYQRPSGVPDRFSGSKSGSSASLAISGLQSEDEADYYCATWDDSLDGWVFGGGTKLTVLR    > 50 µg/mL
CR11039 (antibody, V domains shown) VH: EVQLVQSGAEVKKPGESVKISCKTSGYAFTGYGISWVRQAPGQGLEWMGWINTYKFNTNYAQNLQGRVTMTIDTSTSAAYMELRSLRYEDTAVYFCARDWAGPFGNAFDVWGQGTMVTVSS VL: IQMTQSPSSLSASIGDRVAITCQASQDISDYLNWYQQQPGKAPKLLLYGASNLETGVPSRFSGSGSGTDFTFTISSLQPEDIATYYCQQYGNLPPTFGGGTKLEIK    0.44 µg/mL
CR8033 (antibody, V domains shown) VH: EVQLVETGGGLVQPGRSLRLSCAASGFSFDEYTMHWVRQAPGKGLEWVAGINWKGNFMGYADSVQGRFTISRDNGKNSLYLQMNSLRAEDTALYYCAKDRLESSAMDILEGGTFDIWGQGTMVT VL: EIVLTQSPGTLSLSPGERATLSCRASQSVSSSYLAWYQQKPGQAPRLLIYGASTRATGIPARFSGSGSGTDFTLTISRLEPEDLAVYYCQQYGSSPWTFGQGTKVEIK    > 50 µg/mL
CR10023 (antibody, V domains shown) VH: EVQLVETGGGLVQPGRSLRLSCAASGFTFDDYAMHWVRQAPGKGLEWVSGINWVSTTMGYADSVKGRFTISRDNAKNSLYLQMNSLRAEDTALYYCAKDRLESAAIDILEGGTFDIRGQGTMVTVSS VL: QSALTQPPSASGSPGQSVTISCTGTSSDVGGYNYVSWYQQHPGKAPKLMIYDVSKRPSGVPDRFSGSKSGNTASLTISGLQAEDEAEYYCSSYASGSTYVFGTGTKVTVL    > 50 µg/mL
CR11035 (antibody, V domains shown) VH: QVQLVQSGAEVKKPGSSVKVSCKTSGYAFNGYGISWVRQAPGQGLEWVAWINTYKVNTHYAQNLRGRVTVSIDTSTTTAYMELRSLRSDDTAVYYCARDWGGPFGNAFDFWGQGTMVTVSS VL: DIQMTQSPSSLAASIGDSVTITCRASQSVGSYLNWYQQKPGKAPKLLIYGASNVQSGVPSRFSGSESGTESTLTINNLQPEDSATYYCQQSYSTPRTFGQGTKVEIK    0.26 µg/mL
CR8059 (antibody, V domains shown) VH: EVQLVQSGAEVKKPGASVRVSCRASGYIFTESGITWVRQAPGQGLEWMGWISGYSGDTKYAQKLQGRVTMTKDTSTTTAYMELRSLRYDDTAVYYCARDVQYSGSYLGAYYFDYWSPGTLVTVSS VL: SYVLTQPPSASGTPGQRVTISCSGSSSNIGTNYVYWYQQFPGTAPKLLIYRSYQRPSGVPDRFSGSKSGSSASLAISGLQSEDEADYYCATWDDSLNGWVFGGGTKLTVL    > 50 µg/mL
